- study_target: Prostaglandin G/H synthase 1 (Ovis aries) (UniProt P05979)
- Sequence (whole entry): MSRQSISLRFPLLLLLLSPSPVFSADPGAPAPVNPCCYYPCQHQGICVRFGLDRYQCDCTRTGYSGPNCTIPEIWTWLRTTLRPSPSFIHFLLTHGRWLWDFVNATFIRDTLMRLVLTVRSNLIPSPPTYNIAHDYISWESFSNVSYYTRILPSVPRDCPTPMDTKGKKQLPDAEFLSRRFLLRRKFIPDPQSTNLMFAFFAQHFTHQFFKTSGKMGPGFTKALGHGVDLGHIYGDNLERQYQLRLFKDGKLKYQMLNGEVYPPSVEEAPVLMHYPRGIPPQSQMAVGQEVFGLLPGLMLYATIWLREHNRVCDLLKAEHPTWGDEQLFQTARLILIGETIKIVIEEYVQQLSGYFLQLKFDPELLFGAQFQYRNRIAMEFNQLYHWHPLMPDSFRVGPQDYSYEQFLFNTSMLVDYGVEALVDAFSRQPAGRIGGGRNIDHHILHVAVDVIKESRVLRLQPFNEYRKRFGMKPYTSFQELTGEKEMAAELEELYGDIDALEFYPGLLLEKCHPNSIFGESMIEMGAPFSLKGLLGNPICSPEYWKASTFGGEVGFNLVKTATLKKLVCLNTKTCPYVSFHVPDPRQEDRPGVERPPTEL
- assay_info: Inhibition of ovine COX1 at 100 uM
measurement_type: inhibition

Q: Lookup: inhibition / Prostaglandin G/H synthase 1 (Ovis aries) (UniProt P05979) / `C/C(=C\C(=O)O)CC[C@@H]1[C@@]2(C)CCC[C@@](C)(CO)[C@@H]2CC[C@@]1(C)O`
Ans: 29%

Q: // query: `CC(=O)OC[C@]1(C)CCC[C@]2(C)[C@@H](CC/C(C)=C/C(=O)O)[C@](C)(O)CC[C@@H]12`
Ans: 2%

Q: // query: `CC(=O)OCC[C@@H]1[C@@]2(C)CCC[C@@](C)(COC(C)=O)[C@@H]2CC[C@@]1(C)O`
Ans: 18%

Q: // query: `C[C@@]1(CO)CCC[C@]2(C)[C@@H](CCO)[C@](C)(O)CC[C@@H]12`
Ans: 44%
